Target: T1, human CD228 (R&D Systems Custom02; Lot DCWR021505A) (human, UniProt P08582 20-709, limits assumed)
T1 construct: Bought custom protein coated on ELISA plates; also called CD228 protein; melanotransferrin
T1 sequence (looked up): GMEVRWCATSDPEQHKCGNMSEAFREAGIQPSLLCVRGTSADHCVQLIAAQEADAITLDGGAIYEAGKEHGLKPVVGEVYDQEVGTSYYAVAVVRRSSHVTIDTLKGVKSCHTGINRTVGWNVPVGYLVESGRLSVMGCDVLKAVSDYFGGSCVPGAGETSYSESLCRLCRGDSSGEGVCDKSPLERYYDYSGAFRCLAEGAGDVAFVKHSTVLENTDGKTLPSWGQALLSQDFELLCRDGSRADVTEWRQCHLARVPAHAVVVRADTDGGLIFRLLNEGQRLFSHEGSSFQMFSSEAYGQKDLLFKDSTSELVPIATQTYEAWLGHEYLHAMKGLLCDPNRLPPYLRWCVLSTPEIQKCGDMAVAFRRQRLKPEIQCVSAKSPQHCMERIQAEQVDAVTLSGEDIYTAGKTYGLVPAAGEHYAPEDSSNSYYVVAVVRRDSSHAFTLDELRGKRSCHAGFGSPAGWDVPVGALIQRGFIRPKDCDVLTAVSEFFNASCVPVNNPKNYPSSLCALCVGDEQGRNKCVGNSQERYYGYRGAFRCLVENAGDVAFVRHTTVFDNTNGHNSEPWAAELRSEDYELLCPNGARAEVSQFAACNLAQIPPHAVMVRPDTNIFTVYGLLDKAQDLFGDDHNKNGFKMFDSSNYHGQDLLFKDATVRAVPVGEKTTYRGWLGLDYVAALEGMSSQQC
Experiment: ELISA on CD228 protein, neutral pH (rounded form of Table 2, pH 7.40)
The reader will find reported EC50 values listed item by item below.
Report as a plain number; the unit nM is understood.

Examples from the recorded data:
binder="hL49_27D_Gln (antibody, V domains shown, hL49 variant with the light chain CDR-L1 histidine 27D changed to glutamine) VH: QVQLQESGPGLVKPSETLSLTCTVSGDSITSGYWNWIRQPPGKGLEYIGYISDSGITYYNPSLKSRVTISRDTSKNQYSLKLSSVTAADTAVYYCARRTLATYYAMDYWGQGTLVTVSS VL: DFVMTQSPLSLPVTLGQPASISCRASQSLVQSDGNTYLHWYQQRPGQSPRLLIYRVSNRFSGVPDRFSGSGSGTDFTLKISRVEAEDVGVYYCSQSTHVPPTFGQGTKLEIK" assay_result=0.7
binder="hL49_27D_Tyr (antibody, V domains shown, hL49 variant with the light chain CDR-L1 histidine 27D changed to tyrosine) VH: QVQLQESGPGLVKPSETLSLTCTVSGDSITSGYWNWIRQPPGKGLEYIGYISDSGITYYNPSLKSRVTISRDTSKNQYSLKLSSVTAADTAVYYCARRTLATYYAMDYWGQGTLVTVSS VL: DFVMTQSPLSLPVTLGQPASISCRASQSLVYSDGNTYLHWYQQRPGQSPRLLIYRVSNRFSGVPDRFSGSGSGTDFTLKISRVEAEDVGVYYCSQSTHVPPTFGQGTKLEIK" assay_result=0.7

Looking up hL49 (antibody, V domains shown, Humanized antibody; Only variable domains are tied to it; also called hL49 HALC; hL49 WT) VH: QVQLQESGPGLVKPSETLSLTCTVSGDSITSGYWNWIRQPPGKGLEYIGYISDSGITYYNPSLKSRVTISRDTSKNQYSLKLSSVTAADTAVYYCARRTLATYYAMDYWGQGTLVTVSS VL: DFVMTQSPLSLPVTLGQPASISCRASQSLVHSDGNTYLHWYQQRPGQSPRLLIYRVSNRFSGVPDRFSGSGSGTDFTLKISRVEAEDVGVYYCSQSTHVPPTFGQGTKLEIK , I found its EC50 recorded as 1.8
